In this section we review reported half-life at 2 μM values for a set of molecules.
Assay: PBS Stability Assay
Assay type: physicochemical
Settings: buffer, pH 7.4, 2 μM, phosphate buffered saline pH 7.4; read-out: PBS T½
Give the value in h but do not write h after it.

Molecule: COC(=O)N[C@H](C(=O)N[C@@H](Cc1ccc(C#Cc2cnc(N3CC4CCC(C3)N4C3COC3)nc2)cc1)[C@H](CN(Cc1c(F)cc(-c2ccn(C(F)F)n2)cc1F)NC(=O)[C@@H](NC(=O)OC)C(C)(C)C(F)(F)F)OC(=O)CC(C)(C)c1c(CC(=O)Nc2ccc(OC)c(S(=O)(=O)O)c2)cc(C)cc1OP(=O)(O)O)C(C)(C)C(F)(F)F [Example 107]
Measure unit: h
half-life at 2 μM: 6.36

Molecule: COC(=O)N[C@H](C(=O)N[C@@H](Cc1ccc(C#Cc2ccc(N3CC4CCC(C3)N4C3COC3)nc2)cc1)[C@H](CN(Cc1c(F)cc(-c2ccn(C(F)F)n2)cc1F)NC(=O)[C@@H](NC(=O)OC)C(C)(C)C(F)(F)F)OC(=O)CC(C)(C)c1c(CC(=O)Nc2cccc(C(=O)OO)c2)cc(C)cc1CP(=O)(O)O)C(C)(C)C(F)(F)F [Example 15]
Measure unit: h
half-life at 2 μM: 4.8

Molecule: COC(=O)N[C@H](C(=O)N[C@@H](Cc1ccc(C#Cc2cnc(N3CC4CCC(C3)N4C3COC3)nc2)cc1)[C@H](CN(Cc1c(F)cc(-c2ccn(C(F)F)n2)cc1F)NC(=O)[C@@H](NC(=O)OC)C(C)(C)C(F)(F)F)OC(=O)CC(C)(C)c1c(CC(=O)NCC(=O)O)cc(C)cc1OP(=O)(O)O)C(C)(C)C(F)(F)F [Example 74]
Measure unit: h
half-life at 2 μM: 11.5

Molecule: COC(=O)N[C@H](C(=O)N[C@@H](Cc1ccc(C#Cc2cnc(N3CC4CCC(C3)N4C3COC3)nc2)cc1)[C@H](CN(Cc1c(F)cc(-c2ccn(C(F)F)n2)cc1F)NC(=O)[C@@H](NC(=O)OC)C(C)(C)C(F)(F)F)OC(=O)OCOC(=O)CC(C)(C)c1c(CC(=O)NCP(=O)(O)O)cc(C)cc1OP(=O)(O)O)C(C)(C)C(F)(F)F [Example 69]
Measure unit: h
half-life at 2 μM: 13.1

Molecule: COC(=O)N[C@H](C(=O)N[C@@H](Cc1ccc(C#Cc2cnc(N3CC4CCC(C3)N4C3COC3)nc2)cc1)[C@H](CN(Cc1c(F)cc(-c2ccn(C(F)F)n2)cc1F)NC(=O)[C@@H](NC(=O)OC)C(C)(C)C(F)(F)F)OC(=O)CC(C)(C)c1c(CC(=O)N[C@@H](CCC(=O)O)C(=O)O)cccc1OP(=O)(O)O)C(C)(C)C(F)(F)F [Example 6]
Measure unit: h
half-life at 2 μM: 10.9

Request: Request the reported half-life at 2 μM associated with COC(=O)N[C@H](C(=O)N[C@@H](Cc1ccc(C#Cc2cnc(N3CC4CCC(C3)N4C3COC3)nc2)cc1)[C@H](CN(Cc1c(F)cc(-c2ccn(C(F)F)n2)cc1F)NC(=O)[C@@H](NC(=O)OC)C(C)(C)C(F)(F)F)OC(=O)CC(C)(C)c1c(CC(=O)N(C)CCC(=O)O)cc(C)cc1OP(=O)(O)O)C(C)(C)C(F)(F)F [Example 94]
Result: 3.72

Request: Request the reported half-life at 2 μM associated with COC(=O)N[C@H](C(=O)N[C@@H](Cc1ccc(C#Cc2cnc(N3CC4CCC(C3)N4C3COC3)nc2)cc1)[C@H](CN(Cc1c(F)cc(-c2ccn(C(F)F)n2)cc1F)NC(=O)[C@@H](NC(=O)OC)C(C)(C)C(F)(F)F)OC(=O)CC(C)(C)c1c(CC(=O)N[C@@]2(C(=O)O)CCOC2)cc(C)cc1OP(=O)(O)O)C(C)(C)C(F)(F)F [Example 29]
Result: 8.62

Request: Request the reported half-life at 2 μM associated with COC(=O)N[C@H](C(=O)N[C@@H](Cc1ccc(C#Cc2cnc(N3CC4CCC(C3)N4C3COC3)nc2)cc1)[C@H](CN(Cc1c(F)cc(-c2ccn(C(F)F)n2)cc1F)NC(=O)[C@@H](NC(=O)OC)C(C)(C)C(F)(F)F)OC(=O)CC(C)(C)c1c(CC(=O)NCc2ccc(C(=O)O)cc2)cc(C)cc1OP(=O)(O)O)C(C)(C)C(F)(F)F [Example 49]
Result: 5.66

Request: Request the reported half-life at 2 μM associated with COC(=O)N[C@H](C(=O)N[C@@H](Cc1ccc(C#Cc2cnc(N3CC4CCC(C3)N4C3COC3)nc2)cc1)[C@H](CN(Cc1c(F)cc(-c2ccn(C(F)F)n2)cc1F)NC(=O)[C@@H](NC(=O)OC)C(C)(C)C(F)(F)F)OC(=O)CC(C)(C)c1c(CC(=O)Nc2cccc(S(=O)(=O)O)c2)cc(C)cc1OP(=O)(O)O)C(C)(C)C(F)(F)F [Example 105]
Result: 5.51

Request: Request the reported half-life at 2 μM associated with COC(=O)N[C@H](C(=O)N[C@@H](Cc1ccc(C#Cc2cnc(N3CC4CCC(C3)N4C3COC3)nc2)cc1)[C@H](CN(Cc1c(F)cc(-c2ccn(C(F)F)n2)cc1F)NC(=O)[C@@H](NC(=O)OC)C(C)(C)C(F)(F)F)OC(=O)CC(C)(C)c1c(CC(=O)NCc2ccc(C#N)cc2)cc(C)cc1OP(=O)(O)O)C(C)(C)C(F)(F)F [Example 51]
Result: 6.71

Request: Request the reported half-life at 2 μM associated with COC(=O)N[C@H](C(=O)N[C@@H](Cc1ccc(C#Cc2cnc(N3CC4CCC(C3)N4C3COC3)nc2)cc1)[C@H](CN(Cc1c(F)cc(-c2ccn(C(F)F)n2)cc1F)NC(=O)[C@@H](NC(=O)OC)C(C)(C)C(F)(F)F)OC(=O)OCOC(=O)CC(C)(C)c1c(CC(=O)N2CCN(S(C)(=O)=O)CC2)cc(C)cc1OP(=O)(O)O)C(C)(C)C(F)(F)F [Example 84]
Result: 3.02

Request: Request the reported half-life at 2 μM associated with COC(=O)N[C@H](C(=O)N[C@@H](Cc1ccc(C#Cc2cnc(N3CC4CCC(C3)N4C3COC3)nc2)cc1)[C@H](CN(Cc1c(F)cc(-c2ccn(C(F)F)n2)cc1F)NC(=O)[C@@H](NC(=O)OC)C(C)(C)C(F)(F)F)OC(=O)OCOC(=O)CC(C)(C)c1c(CC(=O)N2CCN(S(N)(=O)=O)CC2)cc(C)cc1OP(=O)(O)O)C(C)(C)C(F)(F)F [Example 85]
Result: 2.27
